# Test System: T1, human CLDN4 (human, UniProt O14493 1-209)
# T1 construct: whole, on cells; Transfection was confirmed with an anti-FLAG antibody, so the construct may carry a tag
# T1 sequence (looked up): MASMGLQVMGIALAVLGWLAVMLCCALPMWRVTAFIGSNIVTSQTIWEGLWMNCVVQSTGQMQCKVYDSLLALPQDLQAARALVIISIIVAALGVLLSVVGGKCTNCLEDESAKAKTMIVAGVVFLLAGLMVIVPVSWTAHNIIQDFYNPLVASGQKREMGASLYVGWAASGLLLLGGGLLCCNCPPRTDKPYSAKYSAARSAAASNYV
# Assay Summary: flow cytometry on 293T cells transiently transfected with human CLDN4

Binder	binding result
mouse anti-CLDN6 antibody C7 (antibody, V domains shown, Mouse monoclonal antibody purified from the culture supernatant of hybridoma 218C7; also called C7 antibody; 218C7) VH: EVQLQQSGPELVKPGASVKISCKTSGYTFTEYTMHWVQQSHGKSLEWIGGVNPNSGDTSYNQKFKGKATLTVDKSSSTAYMELRSLTSEDSAVYYCARPGGYDVGYYAMDYWGQGTSVTVSS VL: DIQMTQTASSLSASLGDRVTISCRASQDINNYLNWYQQKPDGTVKLLIYSTSRLHSGVPSRFSGSGSGTHYSLTITHLEQEDIATYFCQQGYPLPWTFGGGTKLEIK	no binding
mouse anti-CLDN6 antibody B1 (antibody, V domains shown, Mouse monoclonal antibody purified from the culture supernatant of hybridoma 218B1; a mouse IgG1 was used as the control; also called B1 antibody; 218B1) VH: EVQLQQSGPELVKPGASVKISCKTSGYTFTEYTMHWVQQSHGKSLEWIGGVNPNSGDTSYNQKFKGKATLTVDKSSSTAYMELRSLTSEDSAVYYCARPGGYDVGYYAMDYWGQGTSVTVSS VL: DIQMTQTASSLSASLGDRVTISCRASQDINNYLNWYQQKPDGTVKLLIYFTSRLHSGVPSRFSGSGSGTHYSLTITNLEQEDIATYFCQQGYPLPWTFGGGTKLEIK	no binding
